binders and their reported Max MFI
# EXPERIMENTAL_TARGET: T1, human CCR8 (human, UniProt P51685 1-355)
# T1 construct: whole, on cells; also called hCCR8
# T1 sequence (P51685 whole entry): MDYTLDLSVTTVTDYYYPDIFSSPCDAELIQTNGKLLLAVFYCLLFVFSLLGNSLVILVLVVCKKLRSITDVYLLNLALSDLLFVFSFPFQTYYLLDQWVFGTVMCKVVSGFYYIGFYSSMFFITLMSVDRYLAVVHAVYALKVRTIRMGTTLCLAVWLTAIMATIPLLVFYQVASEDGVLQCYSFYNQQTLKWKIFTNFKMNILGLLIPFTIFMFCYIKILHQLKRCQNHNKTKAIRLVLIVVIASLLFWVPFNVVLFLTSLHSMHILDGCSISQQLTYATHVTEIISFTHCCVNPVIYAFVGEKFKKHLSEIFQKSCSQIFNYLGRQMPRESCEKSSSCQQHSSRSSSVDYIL
# MEASUREMENT_DESCRIPTION: FACS on HEK293-human CCR8 cells
Dear colleague, please return just the value in MFI, with no unit written.

Field: example entries. Status: answers known.
BINDER	Max MFI [MFI]
CM348 (antibody, V domains shown, CM348 is not defined in words; also called CM348 HuIgG1; parental antibody CM348) VH: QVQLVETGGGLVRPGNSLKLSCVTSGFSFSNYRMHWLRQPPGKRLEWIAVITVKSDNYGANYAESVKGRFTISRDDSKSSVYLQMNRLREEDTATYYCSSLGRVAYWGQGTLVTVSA VL: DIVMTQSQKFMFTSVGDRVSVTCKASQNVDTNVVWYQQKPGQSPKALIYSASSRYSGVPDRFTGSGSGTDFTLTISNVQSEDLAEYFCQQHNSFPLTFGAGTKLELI	5050
Hu348-4 (antibody, human IgG1, V domains shown, humanized, human IgG1; also called Hu348-4 HuIgG1) VH: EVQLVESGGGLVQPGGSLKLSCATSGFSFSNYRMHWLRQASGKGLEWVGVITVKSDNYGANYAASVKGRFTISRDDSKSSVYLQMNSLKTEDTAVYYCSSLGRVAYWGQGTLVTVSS VL: DIQMTQSPSSVSASVGDRVTITCKASQNVDTNVVWYQQKPGQSPKALIYSASSRYSGVPSRFSGSGSGTDFTLTISSLQPEDFATYYCQQHNSFPLTFGQGTKLEIK	5120
Hu348-1 (antibody, V domains shown, humanized IgG) VH: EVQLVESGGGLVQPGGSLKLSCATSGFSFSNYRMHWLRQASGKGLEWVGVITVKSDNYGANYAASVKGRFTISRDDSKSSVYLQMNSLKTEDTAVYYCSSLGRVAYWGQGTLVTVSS VL: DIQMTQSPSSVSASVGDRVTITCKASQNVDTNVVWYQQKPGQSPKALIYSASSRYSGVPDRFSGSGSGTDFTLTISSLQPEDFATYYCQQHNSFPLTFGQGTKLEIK	5110
Hu348-3 (antibody, V domains shown, humanized IgG) VH: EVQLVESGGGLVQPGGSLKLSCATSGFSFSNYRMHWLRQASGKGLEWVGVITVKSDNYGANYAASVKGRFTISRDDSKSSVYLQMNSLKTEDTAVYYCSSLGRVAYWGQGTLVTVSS VL: DIQMTQSPSSVSASVGDRVTITCKASQNVDTNVVWYQQKPGQSPKLLIYSASSRYSGVPDRFSGSGSGTDFTLTISSLQPEDFATYYCQQHNSFPLTFGQGTKLEIK	4090

Now take the following binder into account.
Report Max MFI, nothing else, for this binder: Hu348-7 (antibody, V domains shown, humanized IgG) VH: EVQLVESGGGLVQPGGSLKLSCATSGFSFSNYRMHWLRQASGKGLEWVGRITVKSDNYGTAYAASVKGRFTISRDDSKSSVYLQMNSLKTEDTAVYYCSSLGRVAYWGQGTLVTVSS VL: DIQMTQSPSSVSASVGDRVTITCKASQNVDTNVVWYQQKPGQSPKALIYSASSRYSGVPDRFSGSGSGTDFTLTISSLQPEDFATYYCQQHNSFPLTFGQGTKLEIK 756

The reported numbers originate from patent US20250034266A1.
